Give measured inhibition for each item. Keep answers brief.
- TARGET_OR_SYSTEM: Platelet-activating factor acetylhydrolase IB subunit alpha2 (Homo sapiens)
- MEASUREMENT_NOTES: inhibition of human PAFAH1B2 catalytic subunit – biochemical, fluorescence polarization, FP-rhodamine probe, triplicate, confirmation (AID 493034);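 note: 0% = enzyme with DMSO and 100% = wells lacking PAFAH1B2 protein; inhibitors lower polarization by leaving the probe unbound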
- EXPERIMENTAL_CONTEXT: recombinant PAFAH1B2, FP-rhodamine probe fluorescence polarization; at 3.39 µM; stronger effect = higher value
Screen size: about 2,400 compounds; about 2,200 (92%) were called active. The set was probably picked from earlier hits. The list shows a part of the results.
Form entry: value (%) — number only.

response.value for `CCOc1ccc(OCCSc2nc3ccccc3c(=O)[nH]2)cc1` (field: inhibition) = 3.03

response.value for `COc1ccccc1CNC(=O)COC(=O)c1ccc(C(=O)c2ccccc2)cc1` (field: inhibition) = 3.07

response.value for `O=[N+]([O-])c1ccc(O)c(/C=N/Nc2nc3ccccc3[nH]2)c1` (field: inhibition) = 28.4

response.value for `CCOc1ccc2nc(NC(=O)CSc3nc(-c4ccccc4)c(C#N)c(=O)[nH]3)sc2c1` (field: inhibition) = 81.7

response.value for COc1ccc(S(=O)(=O)N2CCN(C(=O)[C@@H]3CCC(=O)N3C3OC(=O)c4ccccc43)CC2)cc1 (stereo not given in full) (field: inhibition) = 22.4

response.value for `O=C(COC(=O)C12CC3CC(CC(Br)(C3)C1)C2)Nc1c(F)cccc1F` (field: inhibition) = 35.8

response.value for `Cn1c(COc2ccc(Cl)cc2)nnc1SCc1ncc(-c2ccccc2)o1` (field: inhibition) = 22.4

response.value for `O=C(COC(=O)C12CC3CC(CC(Br)(C3)C1)C2)Nc1cccnc1Cl` (field: inhibition) = 36.7

response.value for `CCOC(=O)c1ccccc1NC(=O)CSc1nnc(C)c(=O)[nH]1` (field: inhibition) = 22.2

response.value for `COc1ccccc1NC(=O)COC(=O)C12CC3CC(CC(Br)(C3)C1)C2` (field: inhibition) = 26.2

* * *

- TARGET_OR_SYSTEM: Platelet-activating factor acetylhydrolase IB subunit alpha2 (Homo sapiens)
- MEASUREMENT_NOTES: inhibition of human PAFAH1B2 catalytic subunit – biochemical, fluorescence polarization, FP-rhodamine probe, triplicate, confirmation (AID 493034);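 note: 0% = enzyme with DMSO and 100% = wells lacking PAFAH1B2 protein; inhibitors lower polarization by leaving the probe unbound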
- EXPERIMENTAL_CONTEXT: recombinant PAFAH1B2, FP-rhodamine probe fluorescence polarization; at 3.39 µM; stronger effect = higher value
The whole screen tested about 2,400 compounds, of which about 2,200 (92%) were called active. So high a share suggests a set chosen from earlier hits. The list shows a part of the results.
Give measured inhibition for each item. Keep answers brief.
Form entry: value (%) — number only.

Given the molecule `O=C(COC(=O)C12CC3CC(CC(C3)C1)C2)NNC(=O)c1ccccc1` and test system Platelet-activating factor acetylhydrolase IB subunit alpha2 (Homo sapiens), the measured inhibition is 21.4

Given the molecule `CC(=O)N1CCOc2ccc(S(=O)(=O)NCCc3ccc(C)cc3)cc21` and test system Platelet-activating factor acetylhydrolase IB subunit alpha2 (Homo sapiens), the measured inhibition is 23.7

Given the molecule CC(NC(=O)COC(=O)C12CC3CC(CC(Br)(C3)C1)C2)c1ccccc1 (stereo not given) and test system Platelet-activating factor acetylhydrolase IB subunit alpha2 (Homo sapiens), the measured inhibition is 31

Given the molecule `O=C(O)CNC(=O)C12CC3CC(CC(Cl)(C3)C1)C2` and test system Platelet-activating factor acetylhydrolase IB subunit alpha2 (Homo sapiens), the measured inhibition is 22.2

Given the molecule `O=C(COC(=O)C12CC3CC(CC(Br)(C3)C1)C2)NNC(=O)c1ccccc1` and test system Platelet-activating factor acetylhydrolase IB subunit alpha2 (Homo sapiens), the measured inhibition is 46.3

Given the molecule CC(CCc1ccccc1)NC(=O)COC(=O)C12CC3CC(CC(Br)(C3)C1)C2 (stereo not given) and test system Platelet-activating factor acetylhydrolase IB subunit alpha2 (Homo sapiens), the measured inhibition is 38.2

Given the molecule `O=C(COC(=O)C1(c2ccc(F)cc2)CCCC1)N1CCN(C(=O)c2ccco2)CC1` and test system Platelet-activating factor acetylhydrolase IB subunit alpha2 (Homo sapiens), the measured inhibition is 20.3

Given the molecule `Cc1cc(C(C)(C)C)cc(S(=O)(=O)Nc2cccc(C(=O)O)c2)c1C` and test system Platelet-activating factor acetylhydrolase IB subunit alpha2 (Homo sapiens), the measured inhibition is 23.3

Given the molecule `Cc1ccc(S(=O)(=O)Nc2cc(C)c(O)c(S(=O)(=O)c3ccc(C)cc3)c2)cc1` and test system Platelet-activating factor acetylhydrolase IB subunit alpha2 (Homo sapiens), the measured inhibition is 28.9

Given the molecule `Cc1ccc(C)c(NC(=S)NCCSc2ccc(Cl)cc2)c1` and test system Platelet-activating factor acetylhydrolase IB subunit alpha2 (Homo sapiens), the measured inhibition is 23.1
